Recorded inhibition of SARS-CoV-2 cytopathic effect for the following compounds
system: Vero E6 infected with SARS-CoV-2; assay: inhibition of SARS-CoV-2 cytopathic effect; higher = more antiviral protection, active = above 15; details: 833.33 nM; 48 h
Entry rule: numbers only, all in %.

Compound: CN1[C@@H]2CC[C@H]1C[C@@H](OC1c3ccccc3CCc3ccccc31)C2
Result Number: -0.87

Compound: N=C(N)NCCC[C@@H](NC(=O)[C@@H]1CCCN1C(=O)[C@@H]1CSSCCC(=O)N[C@@H](Cc2ccc(O)cc2)C(=O)N[C@@H](Cc2ccccc2)C(=O)N[C@@H](CCC(N)=O)C(=O)N[C@@H](CC(N)=O)C(=O)N1)C(=O)NCC(N)=O [desmopressin-acetate]
Result Number: 0.25

Compound: Cn1cnnc1Sc1c([N+](=O)[O-])ncn1C
Result Number: 5

Quick check: inhibition of SARS-CoV-2 cytopathic effect of Nc1ccc(S(=O)(=O)Nc2ccnn2-c2ccccc2)cc1 ?
2.18

Value lookup for inhibition of SARS-CoV-2 cytopathic effect; key = Cl/C=C\C[N+]12CN3CN(CN(C3)C1)C2 [1-((Z)-3-chloroallyl)-1,3,5,7-tetraazaadamantan-1-ium]
2.67

Item under review: O=C(O)Cc1cccnc1C(=O)O . Reported inhibition of SARS-CoV-2 cytopathic effect?
1.81

What measured inhibition of SARS-CoV-2 cytopathic effect goes with C[C@]12CC[C@@H]3c4ccc(O)cc4CC[C@H]3[C@@H]1CC[C@@H]2OC(=O)CCC1CCCC1 [estradiol-cypionate] ?
1.21

Value lookup for inhibition of SARS-CoV-2 cytopathic effect; key = Ic1cncc(OC[C@@H]2CCN2)c1
1.07

Given the entry O=C(CCCCCCC(=O)Nc1ccccc1)NO , report its measured inhibition of SARS-CoV-2 cytopathic effect.
-5.85

Item C[N+](C)(C)CC[N+]1(C)Cc2c(Cl)c(Cl)c(Cl)c(Cl)c2C1 [chlorisondamine-diiodide] has what recorded inhibition of SARS-CoV-2 cytopathic effect?
1.41

Find the recorded inhibition of SARS-CoV-2 cytopathic effect belonging to CCOC(=O)NNc1ccc(N(CC)CC(C)O)nn1 (configuration not stated) and report it.
-1.81

Entry N#Cc1c(N(CC(=O)O)CC(=O)O)sc(C(=O)O)c1CC(=O)O [Strontium Ranelate] has what inhibition of SARS-CoV-2 cytopathic effect?
5.99

// returns reported inhibition of SARS-CoV-2 cytopathic effect for input CC(C)OC(=O)C(C)(C)Oc1ccc(C(=O)c2ccc(Cl)cc2)cc1 [fenofibrate]
-0.31

For CCn1c(-c2nonc2N)nc2c(C#CC(C)(C)O)ncc(OC[C@H]3CCCNC3)c21 , what is its reported inhibition of SARS-CoV-2 cytopathic effect?
5.33

Recorded values, source the supplement of paper PMC13380429.
